Reported Emax values for a set of compounds
target.under.test: UniProt P41145
assay.name: Agonist activity at human kappa opioid receptor expressed in CHO-K1 cells assessed as inhibition of forskolin-induced cAMP accumulation by TR-FRET assay
Assay type: functional, cell-based
The response must be a number in % with no trailing unit.

Illustrative cases are given below, each with its answer.
CN(C(=O)/C=C/c1cccs1)[C@@H]1CC[C@@]2(O)[C@H]3[C@@H](O)c4ccc(O)c5c4[C@@]2(CCN3CC2CC2)[C@H]1O5: 101
CN(C(=O)/C=C/c1ccccc1)[C@@H]1CC[C@@]2(O)[C@H]3[C@@H](O)c4ccc(O)c5c4[C@@]2(CCN3CC2CC2)[C@H]1O5: 101
CN(C(=O)CCCc1ccccc1)[C@@H]1CC[C@@]2(O)[C@H]3[C@@H](O)c4ccc(O)c5c4[C@@]2(CCN3CC2CC2)[C@H]1O5: 96

Quick one: Emax of CN(C(=O)/C=C/c1ccccn1)[C@@H]1CC[C@@]2(O)[C@H]3[C@@H](O)c4ccc(O)c5c4[C@@]2(CCN3CC2CC2)[C@H]1O5 ? 99

Please do the same for CN(C(=O)CCc1ccccc1)[C@@H]1CC[C@@]2(O)[C@H]3[C@@H](O)c4ccc(O)c5c4[C@@]2(CCN3CC2CC2)[C@H]1O5 as well. 100

Param item: CN(C(=O)/C=C/c1ccncc1)[C@@H]1CC[C@@]2(O)[C@H]3[C@@H](O)c4ccc(O)c5c4[C@@]2(CCN3CC2CC2)[C@H]1O5 99

###

target.under.test: Kappa-type opioid receptor (Homo sapiens)
Sequence (P41145 whole entry): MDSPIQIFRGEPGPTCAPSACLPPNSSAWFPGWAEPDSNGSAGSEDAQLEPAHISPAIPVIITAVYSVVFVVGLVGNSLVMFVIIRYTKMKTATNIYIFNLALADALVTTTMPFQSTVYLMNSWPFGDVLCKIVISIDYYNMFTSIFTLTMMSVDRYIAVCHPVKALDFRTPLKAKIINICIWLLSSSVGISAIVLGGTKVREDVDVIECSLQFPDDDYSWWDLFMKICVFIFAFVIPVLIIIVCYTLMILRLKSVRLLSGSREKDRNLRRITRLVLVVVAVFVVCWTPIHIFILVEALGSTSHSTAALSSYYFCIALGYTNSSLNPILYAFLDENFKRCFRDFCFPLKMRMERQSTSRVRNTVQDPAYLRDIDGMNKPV
assay.name: Agonist activity at human kappa opioid receptor expressed in CHO-K1 cells assessed as inhibition of forskolin-induced cAMP accumulation by TR-FRET assay
Assay type: functional, cell-based
Mark true for EC50 under 0.08 nM, false if at or over.

# example entries with known answers
CN(C(=O)COc1ccccc1)[C@@H]1CC[C@@]2(O)[C@H]3[C@@H](O)c4ccc(O)c5c4[C@@]2(CCN3CC2CC2)[C@H]1O5: false
CN(C(=O)/C=C/c1ccc(Cl)cc1)[C@@H]1CC[C@@]2(O)[C@H]3[C@@H](O)c4ccc(O)c5c4[C@@]2(CCN3CC2CC2)[C@H]1O5: true
CN(C(=O)/C=C/c1ccccn1)[C@@H]1CC[C@@]2(O)[C@H]3[C@@H](O)c4ccc(O)c5c4[C@@]2(CCN3CC2CC2)[C@H]1O5: true
CN(C(=O)Cc1ccccc1)[C@@H]1CC[C@@]2(O)[C@H]3[C@@H](O)c4ccc(O)c5c4[C@@]2(CCN3CC2CC2)[C@H]1O5: false
CN(C(=O)/C=C/c1ccccc1)[C@@H]1CC[C@@]2(O)[C@H]3[C@@H](O)c4ccc(O)c5c4[C@@]2(CCN3CC2CC2)[C@H]1O5: true
CN(C(=O)/C=C/c1cccs1)[C@@H]1CC[C@@]2(O)[C@H]3[C@@H](O)c4ccc(O)c5c4[C@@]2(CCN3CC2CC2)[C@H]1O5: true
CN(C(=O)/C=C/c1ccoc1)[C@@H]1CC[C@@]2(O)[C@H]3[C@@H](O)c4ccc(O)c5c4[C@@]2(CCN3CC2CC2)[C@H]1O5: true
Cc1ccc(/C=C/C(=O)N(C)[C@@H]2CC[C@@]3(O)[C@H]4[C@@H](O)c5ccc(O)c6c5[C@@]3(CCN4CC3CC3)[C@H]2O6)cc1: true
CN(C(=O)CCCc1ccccc1)[C@@H]1CC[C@@]2(O)[C@H]3[C@@H](O)c4ccc(O)c5c4[C@@]2(CCN3CC2CC2)[C@H]1O5: false
CN(C(=O)/C=C/c1ccncc1)[C@@H]1CC[C@@]2(O)[C@H]3[C@@H](O)c4ccc(O)c5c4[C@@]2(CCN3CC2CC2)[C@H]1O5: true

Would you kindly verify if EC50 of CN(C(=O)c1ccccc1)[C@@H]1CC[C@@]2(O)[C@H]3[C@@H](O)c4ccc(O)c5c4[C@@]2(CCN3CC2CC2)[C@H]1O5 is strictly less than 0.08 nM? false

What about this molecule? CN(C(=O)/C=C/c1ccco1)[C@@H]1CC[C@@]2(O)[C@H]3[C@@H](O)c4ccc(O)c5c4[C@@]2(CCN3CC2CC2)[C@H]1O5 false

Then CN(C(=O)/C=C/c1ccsc1)[C@@H]1CC[C@@]2(O)[C@H]3[C@@H](O)c4ccc(O)c5c4[C@@]2(CCN3CC2CC2)[C@H]1O5 ? true
